# System: SW-620 colon
# ASSAY_DETAILS: NCI-60 one-dose screen, 48 h
# STUDY_CONDITIONS: 10 µM unless noted
# Procedure: Growth inhibition of the SW-620 human tumor cell line is measured as a screen for anti-cancer activity. Cells are grown in 96 well plates and exposed to the test compound for 48 hours. Compounds are tested at a single concentration, which is 10^-5 M for most compounds. The reported endpoint is percent growth (GI% or GIPRCNT), where numbers from 0 - 100% represent growth inhibition, and numbers from -100% - 0 represent cell death. For example, a value of 40 represents 60% growth inhibition. […]
Compounds without any hit were thinned out: in the full panel of roughly 83,000, 20% have a hit. Calls of active or inactive are those of the source. Rule for the calls: active = growth percent below 10; inactive = the rest.
Write down one outcome, taken from active, inactive

Could you kindly confirm the outcome this assay logged for C=C(C)[C@@H]1CC[C@]2(C)[C@H](CC(=O)N[C@H]3[C@@H]4C[C@](C)(C(=O)OC)CC[C@]4(C)CC[C@]32C)[C@@]1(C)CCC#N ?
inactive

Fill in: this test's call for Cn1cc(-c2csc(-c3c[nH]c4ccc(F)cc34)n2)c2cnccc21 is ___
active

Outcome logged for CN1CCCc2cc(/C=C3\SC(=S)N(C(Cc4ccc(O)cc4)C(=O)O)C3=O)ccc21 (stereo not drawn) in this assay:
inactive

Can you look up the reported call for CCOC(=O)c1c(-c2ccc(OC)cc2)c(C#N)c2c(C#N)c(N)nn2c1N for me?
inactive

Dear colleague, could you share the recorded outcome for COc1ccc2c(c1)c(C(=O)c1nc(-c3cn(C)c4ccccc34)no1)cn2C when you have a moment?
inactive

Hi, sorry to bother you, what did the test record for NCCOCCOc1ccccc1 ?
inactive

Hi team, can someone confirm the assay call for COc1ccc(C(c2cc(OC)c(OC)c(OC)c2)n2ccnc2)cc1O (stereo not drawn) ?
inactive

Hi, do you know how N#C/C(=C\c1ccc(Br)cc1)n1nnc2c(F)cccc21 came out in this test?
active

Identify the outcome logged in this assay for the molecule shown: COc1cc(/C=C2\C(=O)N(CCCCn3c4ccccc4c(=O)c4ccccc43)c3ccccc32)cc(OC)c1O
inactive

// param item: O=C1/C(=C/c2ccc(F)c(F)c2)CN(C(=O)C(Cl)Cl)C/C1=C\c1ccc(F)c(F)c1 ; yields the recorded call
active

In this assay, the call recorded for Nc1ccc(-c2ccc(N)c(Br)c2)cc1Br was what?
inactive

Give the logged outcome of this assay for the following molecule: CCOC(=O)c1cnn(CC(O)CC)c1NC(=O)NCc1ccccc1C(F)(F)F (stereo not drawn)
inactive

Returns: the outcome recorded for [Cu+].[NH-][C@H]1C[N-]C(=O)[C@H]([C@H]2CCN=C(N)N2)[N-]C(=O)/C(=C\NC(N)=O)[N-]C(=O)[C@H](CNC(=O)C[C@@H](N)CCCN)[N-]C(=O)[C@H](CO)[N-]C1=O in this assay.
inactive

Field: outcome | Entry: CCCCn1c(C(=O)c2c[nH]c3ccccc23)n[nH]c1=S
inactive

Could you kindly confirm the outcome this assay logged for O=C1C(=C(O)c2ccccc2)C(=O)c2ccccc21 ?
inactive

Answer briefly: the call reported for C#Cc1cc(C(=O)Nc2ccc(CN3CCN(C)CC3)c(C(F)(F)F)c2)ccc1C in this assay.
inactive

For this molecule, state the assay outcome: O=C(Nc1ncc(Cc2cccc(C(F)(F)F)c2)s1)c1ccc2c(c1)OCCO2
inactive

Assay outcome for COc1nc(=O)n(C2C=CC(=O)O2)cc1F (stereo not drawn) : what was it?
inactive

Hey, what did the test say about N=C(N)c1ccc(-c2ccc(-c3ccc(Cl)c(Cl)c3)s2)cc1 ?
active

Fill in: this test's call for N=C1/C(=C2\NC3C=CC=CC3S2)C(c2ccc(Cl)cc2)C2C(=O)N(c3ccccc3)C(=S)N12 (stereo not drawn) is ___
inactive

How did this test come out for O=C(Cc1ccc(F)cc1)c1ccccc1 ?
inactive

Status in this test for CN(C)C(=O)c1cc2cnc(Nc3ccc(-c4csc5c(=S)cc(N6CCOCC6)oc45)cc3)nc2n1C1CCCC1 ?
active

So what was the verdict on COc1cc(-c2nn(-c3cccc(NC(=O)CCN4CCN(C)CC4)c3)cc2-c2ccncc2)ccc1Cl in this test?
inactive

Origin of the recorded values: PubChem BioAssay (NCI)
